System: behaviorally-diagnosed psychiatric conditions (DSM categories)
Design: species or system human
Conditions: in vivo
endpoint: use code of agent in 307.42 Primary Insomnia

Guide cases for use code of agent in 307.42 Primary Insomnia, answers given:
| compound | result |
| --- | --- |
| N[C@@H]1C[C@H]1c1ccccc1 [PARNATE, reference compound] | N |
| NNCCc1ccccc1 | N |
| CC(NC(C)(C)C)C(=O)c1cccc(Cl)c1 (centres unmarked) [BUPROPRION (REGULAR TABS)] | N |
| CC(NC(C)(C)C)C(=O)c1cccc(Cl)c1 (centres unmarked) [BUPROPRION (LONG ACTING)] | N |

Entry COCCc1ccc(OCC(O)CNC(C)C)cc1 (centres unmarked) , behaviorally-diagnosed psychiatric conditions (DSM categories) data, use code of agent in 307.42 Primary Insomnia value: N
